The measurements presented in this section are drawn from patent US20260130395A1.

Stability of Plant-Derived Cannabinoid Compounds in AB White, 21-25° C. by entry:
experiment: Stability of cannabinoid compounds and Vitamin E components in Beverage 1 (AB White) by LCMSMS; assay type: physicochemical; conditions: AB White stored at 21-25° C.; 120 days
REPORTED METRIC: Stability of Plant-Derived Cannabinoid Compounds in AB White, 21-25° C. (µg/mL)

MOLECULE	OBSERVED
CCCCCc1cc(O)c2c(c1)OC(C)(CCC=C(C)C)C=C2 (centres unmarked)	0.318
CCCCCc1cc(O)c2c(c1)OC(C)(C)[C@@H]1CCC(C)=C[C@@H]21 [D9 THC, delta-9-tetrahydrocannabinol, reference compound]	11.7
CCCc1cc(O)c2c(c1)OC(C)(C)[C@@H]1CCC(C)=C[C@@H]21 [THCV, delta-9-tetrahydrocannabivarin]	3.45
C=C(C)[C@@H]1CCC(C)=C[C@H]1c1c(O)cc(CCC)cc1O	0.141
C=C(C)[C@@H]1CCC(C)=C[C@H]1c1c(O)cc(CCCCC)c(C(=O)O)c1O	1.66
